B1: HDV Ribozyme (parent)
chain: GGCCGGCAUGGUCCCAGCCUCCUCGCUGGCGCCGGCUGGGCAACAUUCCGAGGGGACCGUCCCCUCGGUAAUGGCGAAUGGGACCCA

Variants of: B1
Assay: self-cleavage, relative activity (ratio to wild type); higher = more cleavage; co-transcriptional
self-cleavage listing for selected variants.

change	self-cleavage
G6U U65C	0.289
G53A C75U	0.256
C30A C48G	0.467
C62G G67A	0.095
C22U A83C	0.298
C64A C66A	0.573
C32U U47G	1.03
G5U U47C	0.185
U37C C64A	0.831
G59A C64A	0.862
A16U A87G	0.968
A16G C22A	0.199
G28C C63G	0.101
U23A U60C	1.16
G53A C84A	0.888
U69A A70G	0.98
G34A U46C	0.215
G39A G54C	0.369
G29U C48U	0.0959
C30A A56U	0.727
C19U C44U	0.0852
G25U G31U	0.0875
